- System Under Test: Kinesin-like protein KIF11 (Homo sapiens, UniProt P52732)
- Assay Text: Inhibition of human recombinant C-terminal His6-tagged KSP ATPase activity after 1 hr by malachite green assay
Outcome Measure: IC50 (nM)

Examples with answers:
CCC(c1nc2ccsc2c(=O)n1Cc1ccccc1)N(CCCN)C(=O)c1ccccc1C (stereo not given) | 1060
CCC(c1nc2ccsc2c(=O)n1Cc1ccccc1)N(CCCN)C(=O)c1cccc(C)c1 (stereo not given) | 90
CCC(c1nc2snc(C)c2c(=O)n1Cc1ccccc1)N(CCCN)C(=O)c1ccc(C)cc1 (stereo in doubt; 68) | 1

[A] CCC(c1nc2ccsc2c(=O)n1Cc1ccccc1)N(CCCN)C(=O)c1ccco1 (stereo not given)
[B] CCC(c1nc2ccsc2c(=O)n1Cc1ccc(Cl)cc1)N(CCCN)C(=O)c1ccc(C)cc1 (stereo not given)
For this pair, A and B , which shows a numerically higher IC50? Mark your answer with the label of the selected entry. A

* * *

- System Under Test: Kinesin-like protein KIF11 (Homo sapiens, UniProt P52732)
- Sequence (P52732 whole entry): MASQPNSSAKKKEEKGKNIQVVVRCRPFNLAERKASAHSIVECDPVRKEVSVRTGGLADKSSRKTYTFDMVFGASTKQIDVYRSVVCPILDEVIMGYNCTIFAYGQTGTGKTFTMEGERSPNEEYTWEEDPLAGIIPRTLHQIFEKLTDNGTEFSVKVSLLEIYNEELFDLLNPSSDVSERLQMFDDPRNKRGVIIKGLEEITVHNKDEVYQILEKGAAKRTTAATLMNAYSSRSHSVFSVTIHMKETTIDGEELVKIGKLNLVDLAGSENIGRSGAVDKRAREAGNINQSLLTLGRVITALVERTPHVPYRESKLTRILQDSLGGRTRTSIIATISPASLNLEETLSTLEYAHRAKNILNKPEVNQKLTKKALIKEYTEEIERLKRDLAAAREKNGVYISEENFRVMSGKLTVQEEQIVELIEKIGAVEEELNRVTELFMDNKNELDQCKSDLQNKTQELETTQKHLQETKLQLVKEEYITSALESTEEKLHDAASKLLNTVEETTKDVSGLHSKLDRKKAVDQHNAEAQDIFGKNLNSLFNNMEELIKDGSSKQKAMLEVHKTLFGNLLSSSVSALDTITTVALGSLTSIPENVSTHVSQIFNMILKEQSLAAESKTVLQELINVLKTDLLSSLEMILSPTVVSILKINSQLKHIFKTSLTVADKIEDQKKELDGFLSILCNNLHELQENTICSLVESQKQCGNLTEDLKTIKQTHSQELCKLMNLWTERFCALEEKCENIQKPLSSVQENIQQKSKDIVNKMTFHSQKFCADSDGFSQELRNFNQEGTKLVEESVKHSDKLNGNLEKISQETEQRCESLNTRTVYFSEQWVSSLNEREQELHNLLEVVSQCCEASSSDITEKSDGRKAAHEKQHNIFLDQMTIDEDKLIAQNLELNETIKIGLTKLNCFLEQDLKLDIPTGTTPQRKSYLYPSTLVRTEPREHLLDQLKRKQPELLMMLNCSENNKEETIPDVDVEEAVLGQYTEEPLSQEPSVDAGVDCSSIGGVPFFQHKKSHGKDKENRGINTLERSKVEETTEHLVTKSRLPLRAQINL
- Assay Text: Inhibition of human recombinant C-terminal His6-tagged KSP ATPase activity after 1 hr by malachite green assay
pIC50: −log10 of the molar value.
Outcome Measure: pIC50

CCC(c1nc2ccsc2c(=O)n1Cc1ccccc1F)N(CCCN)C(=O)c1ccc(C)cc1 (stereo not given) | 6.85

[I] CCC(c1nc2ccsc2c(=O)n1Cc1ccc(OC)cc1)N(CCCN)C(=O)c1ccc(C)cc1 (stereo not given)
[II] CCC(c1nc2ccsc2c(=O)n1Cc1ccccc1)N(CC1CCNCC1)C(=O)c1ccc(C)cc1 (stereo not given)
[III] CCC(c1nc2sc(Cl)cc2c(=O)n1Cc1ccccc1)N(CCCN)C(=O)c1ccc(C)cc1 (stereo not given)
Arrange by pIC50, high to low. Return the labels ranked in the requested order, please. III, I, II
(III: 7.07, I: 6.80, II: 5.84)

* * *

- System Under Test: Cytochrome P450 2D6 (Homo sapiens, UniProt P10635)
- Sequence (P10635 whole entry): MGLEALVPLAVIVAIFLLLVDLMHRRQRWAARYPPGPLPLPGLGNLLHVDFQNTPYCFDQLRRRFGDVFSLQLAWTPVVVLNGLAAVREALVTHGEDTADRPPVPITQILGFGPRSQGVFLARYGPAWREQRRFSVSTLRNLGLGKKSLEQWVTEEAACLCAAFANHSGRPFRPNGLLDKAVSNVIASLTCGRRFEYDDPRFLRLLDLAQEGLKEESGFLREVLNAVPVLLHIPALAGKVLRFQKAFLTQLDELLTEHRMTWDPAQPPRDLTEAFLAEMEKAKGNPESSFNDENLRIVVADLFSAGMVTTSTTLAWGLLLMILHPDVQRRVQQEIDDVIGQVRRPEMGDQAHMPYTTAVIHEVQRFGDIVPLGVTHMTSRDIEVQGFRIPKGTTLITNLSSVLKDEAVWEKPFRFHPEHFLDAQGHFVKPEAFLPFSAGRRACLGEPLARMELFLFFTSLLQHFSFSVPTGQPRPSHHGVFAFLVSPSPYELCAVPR
- Assay Text: Inhibition of human recombinant CYP2D6
Outcome Measure: IC50

// returns reported IC50 for input Cc1ccc(C(=O)N(CCCN)C(c2nc3snc(C)c3c(=O)n2Cc2ccccc2)C(C)C)cc1 (single isomer, unassigned; (+)) > 10 µM

* * *

- Assay Text: Plasma concentration in Hans Wistar rat hollow fiber model implanted with human COLO205 cells at 6 mg/kg, iv after 24 hrs
- Assay type: ADME, organism-based, COLO 205
- Parameters: dose 6 mg/kg, route intravenous
Outcome Measure: concentration at 24 h (ng/mL)
Number only, in ng/mL; omit the unit.

// returns reported concentration at 24 h for input Cc1ccc(C(=O)N(CCCN)C(c2nc3snc(C)c3c(=O)n2Cc2ccccc2)C(C)C)cc1 (single isomer, unassigned; (+)) [AZD-4877] 2.8

* * *

- System Under Test: Kinesin-like protein KIF11 (Homo sapiens)
- Assay Text: Inhibition of human recombinant C-terminal His6-tagged KSP ATPase activity after 1 hr by malachite green assay
pIC50: −log10 of the molar value.
Outcome Measure: pIC50

Examples with answers:
CCC(c1nc2ccsc2c(=O)n1Cc1ccccc1)N(CCCN)C(=O)c1ccc(C)nc1 (stereo not drawn) | 6.01
CCC(c1nc2ccsc2c(=O)n1Cc1ccccc1)N(CCCCN)C(=O)c1ccc(C)cc1 (stereo not drawn) | 6.41
CCC(c1nc2ccsc2c(=O)n1CC1CC1)N(CCCN)C(=O)c1ccc(C)cc1 (stereo not drawn) | 6.12

[a] CCC(c1nc2ccsc2c(=O)n1Cc1ccncc1)N(CCCN)C(=O)c1ccc(C)cc1 (stereo not drawn)
[b] CCC(c1nc2ccsc2c(=O)n1Cc1ccccc1)N(CCCN)C(=O)C1CCC(OC)CC1 (stereo not drawn)
For this pair, a and b , which shows a numerically higher pIC50? Mark your answer with the label of the selected entry. a

* * *

- Assay Text: Binding affinity to sodium channel in guinea pig atria by radioligand displacement assay
- Set-up: species or system Cavia porcellus
Outcome Measure: IC50

// returns reported IC50 for input Cc1ccc(C(=O)N(CCCN)C(c2nc3snc(C)c3c(=O)n2Cc2ccccc2)C(C)C)cc1 (single isomer, unassigned; (+)) > 30 µM

* * *

- System Under Test: Kinesin-like protein KIF11 (Homo sapiens, UniProt P52732)
- Assay Text: Inhibition of human recombinant C-terminal His6-tagged KSP ATPase activity after 1 hr by malachite green assay
Outcome Measure: IC50 (µM)

CCC(c1nc2snc(C)c2c(=O)n1Cc1ccccc1)N(CCCN)C(=O)c1ccc(C)cc1 (single isomer, unassigned; (-)) | 0.051

[a] CCC(c1nc2sccc2c(=O)n1Cc1ccccc1)N(CCCN)C(=O)c1ccc(C)cc1 (stereo in doubt; 56)
[b] CCC(c1nc2ccsc2c(=O)n1Cc1ccccc1)N(CCCNC(=O)OC(C)(C)C)C(=O)c1ccc(C)cc1 (centres undefined)
For this pair, a and b , which shows a numerically higher IC50? Mark your answer with the label of the selected entry. b

* * *

- Assay Text: Clearance in nude mouse
- Format: ADME, organism-based
- Condition Set: in vivo
Outcome Measure: clearance (mL/min/kg)

[a] CCC(c1nc2snc(C)c2c(=O)n1Cc1ccccc1)N(CCCN)C(=O)c1ccc(C)cc1 (stereo in doubt; 68)
[b] Cc1ccc(C(=O)N(CCCN)C(c2nc3snc(C)c3c(=O)n2Cc2ccccc2)C(C)C)cc1 (single isomer, unassigned; (+))
For this pair, a and b , which shows a numerically higher clearance? Mark your answer with the label of the selected entry. a

* * *

- Assay Text: Clearance in Wistar rat at 6 mg/kg, iv administered as a single bolus dose
- Type: ADME, organism-based
- Design: dose 6 mg/kg, route intravenous
- Condition Set: in vivo
Outcome Measure: clearance (mL/min/kg)
Number only, in mL/min/kg; omit the unit.

// returns reported clearance for input Cc1ccc(C(=O)N(CCCN)C(c2nc3snc(C)c3c(=O)n2Cc2ccccc2)C(C)C)cc1 (single isomer, unassigned; (+)) [AZD-4877] 36

* * *

- Assay Text: AUC (infinity) in Wistar rat at 6 mg/kg, iv administered as a single bolus dose
- Type: ADME, organism-based
- Design: time infinity, dose 6 mg/kg, route intravenous
- Condition Set: plasma
Outcome Measure: AUC(0-inf) (µg·h/mL)
Number only, in µg·h/mL; omit the unit.

// returns reported AUC(0-inf) for input Cc1ccc(C(=O)N(CCCN)C(c2nc3snc(C)c3c(=O)n2Cc2ccccc2)C(C)C)cc1 (single isomer, unassigned; (+)) 2.84

* * *

- System Under Test: Kinesin-like protein KIF23 (Homo sapiens)
- Sequence (Q02241 whole entry): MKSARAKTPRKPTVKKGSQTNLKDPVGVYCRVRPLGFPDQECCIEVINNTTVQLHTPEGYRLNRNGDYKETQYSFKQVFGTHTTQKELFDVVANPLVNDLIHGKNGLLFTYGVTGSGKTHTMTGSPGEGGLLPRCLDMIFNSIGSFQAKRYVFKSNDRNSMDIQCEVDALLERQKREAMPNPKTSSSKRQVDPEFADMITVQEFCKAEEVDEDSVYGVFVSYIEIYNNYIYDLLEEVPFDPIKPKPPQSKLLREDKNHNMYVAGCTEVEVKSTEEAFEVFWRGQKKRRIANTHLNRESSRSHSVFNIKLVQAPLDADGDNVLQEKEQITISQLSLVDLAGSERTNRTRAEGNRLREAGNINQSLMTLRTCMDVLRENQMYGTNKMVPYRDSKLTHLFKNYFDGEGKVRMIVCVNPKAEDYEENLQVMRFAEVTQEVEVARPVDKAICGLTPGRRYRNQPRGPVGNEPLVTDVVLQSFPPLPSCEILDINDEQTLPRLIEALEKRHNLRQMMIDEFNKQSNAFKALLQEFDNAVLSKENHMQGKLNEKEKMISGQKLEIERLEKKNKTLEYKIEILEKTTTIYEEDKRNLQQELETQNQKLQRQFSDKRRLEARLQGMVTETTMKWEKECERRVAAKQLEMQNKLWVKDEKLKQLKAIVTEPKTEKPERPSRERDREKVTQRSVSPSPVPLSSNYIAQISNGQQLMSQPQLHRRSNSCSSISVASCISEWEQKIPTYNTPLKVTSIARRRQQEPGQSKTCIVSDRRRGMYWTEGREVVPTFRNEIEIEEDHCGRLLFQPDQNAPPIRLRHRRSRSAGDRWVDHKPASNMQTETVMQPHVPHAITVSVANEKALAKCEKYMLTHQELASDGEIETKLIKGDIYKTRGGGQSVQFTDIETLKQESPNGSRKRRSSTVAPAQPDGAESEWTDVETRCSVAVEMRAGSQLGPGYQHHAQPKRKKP
- Assay Text: Inhibition of human recombinant GST-MKLP1 after 20 mins by malachite green assay
Outcome Measure: IC50 (µM)
Number only, in µM; omit the unit.

// returns reported IC50 for input Cc1ccc(C(=O)N(CCCN)C(c2nc3snc(C)c3c(=O)n2Cc2ccccc2)C(C)C)cc1 (single isomer, unassigned; (+)) [AZD-4877] 50
